# Experimental Details: logP determination by HPLC (reversed-phase C 18), EEC Directive 79/831 Annex V.A8
# Type: physicochemical
# Measurement Parameters: reversed-phase C18 HPLC column; pH 7.5; HPLC, 0.01 molar aqueous phosphate buffer/acetonitrile; 43° C.; read-out: log P (pH 7.5)
# Experimental: The stated logP values were determined in accordance with EEC Directive 79/831 Annex V.A8 by HPLC (High Performance Liquid Chromatography), using a reversed-phase column (C 18). Temperature: 43° C. In the acidic range, the determination was carried out at pH 2.3 using the mobile phases 0.1% aqueous phosphoric acid and acetonitrile; linear gradient from 10% acetonitrile to 90% acetonitrile. […]
Property Name: chromatographic logP
Just the number.

Ask: Quick check: chromatographic logP of CC(C)(C)OC(=O)N1C(=O)CCC1c1sccc1Cl (stereo not shown) ?
Result: 2.77

---

# Experimental Details: logP determination by HPLC (reversed-phase C 18), EEC Directive 79/831 Annex V.A8
# Type: physicochemical
# Measurement Parameters: reversed-phase C18 HPLC column; pH 2.3; HPLC, 0.1% aqueous phosphoric acid/acetonitrile; 43° C.; read-out: log P (pH 2.3)
# Method: The stated logP values were determined in accordance with EEC Directive 79/831 Annex V.A8 by HPLC (High Performance Liquid Chromatography), using a reversed-phase column (C 18). Temperature: 43° C. In the acidic range, the determination was carried out at pH 2.3 using the mobile phases 0.1% aqueous phosphoric acid and acetonitrile; linear gradient from 10% acetonitrile to 90% acetonitrile. […]
Here, each record is paired with measured chromatographic logP data.
Just the number.

{"Compound": "Fc1cccc(F)c1C1=NC(c2cc(-c3cccc(OC(F)(F)F)c3)cs2)CC1 (centres unmarked)", "chromatographic logP": 4.08}
{"Compound": "Fc1cccc(F)c1C1=NC(c2ccc(Br)s2)CC1 (centres unmarked)", "chromatographic logP": 3.45}
{"Compound": "Cc1ccsc1C1CCC(=O)N1 (centres unmarked)", "chromatographic logP": 1.33}
{"Compound": "O=C(/C=C/c1cc(Br)cs1)c1c(F)cccc1F", "chromatographic logP": 3.78}

From here, focus on the item given below.
Ask: Quick check: chromatographic logP of CC(C)(C)OC(=O)N1C(=O)CCC1c1cccs1 (centres unmarked) ?
Result: 2.39

The origin of these recorded values is patent US7186722B2.
